In this section we review reported MFI at 20 nM values for a set of binders.
# Tgt: human delta-like ligand 3 (DLL3) on SHP77 cells (human) (UniProt Q9NYJ7)
# Sequence (Q9NYJ7 27-618, stated change not applied): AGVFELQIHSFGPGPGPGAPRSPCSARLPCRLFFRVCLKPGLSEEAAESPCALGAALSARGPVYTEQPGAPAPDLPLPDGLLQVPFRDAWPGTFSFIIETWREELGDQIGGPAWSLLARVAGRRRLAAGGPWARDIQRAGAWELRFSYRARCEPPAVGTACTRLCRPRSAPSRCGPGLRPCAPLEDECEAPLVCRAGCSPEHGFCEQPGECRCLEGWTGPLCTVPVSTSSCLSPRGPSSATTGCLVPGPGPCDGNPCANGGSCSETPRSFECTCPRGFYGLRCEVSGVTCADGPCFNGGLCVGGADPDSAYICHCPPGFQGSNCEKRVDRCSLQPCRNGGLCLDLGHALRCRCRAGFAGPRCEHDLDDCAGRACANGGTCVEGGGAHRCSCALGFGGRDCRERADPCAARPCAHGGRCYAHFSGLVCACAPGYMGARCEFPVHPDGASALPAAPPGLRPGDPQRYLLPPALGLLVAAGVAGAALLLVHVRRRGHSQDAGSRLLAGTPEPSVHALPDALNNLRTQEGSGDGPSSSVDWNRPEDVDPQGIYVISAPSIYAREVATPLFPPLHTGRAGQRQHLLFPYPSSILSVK
# Assay: FACS on SHP77 cells
Express it in MFI; write the number only.

Examples with their reported MFI at 20 nM follow.
Hab008L1H5-hFc (scFv, part only; not given: VL-VH linker and human IgG1 Fc, V domains shown, not shown: another chain or arm of the molecule; a dimerising Fc or GST; small tags and cut ends) VL: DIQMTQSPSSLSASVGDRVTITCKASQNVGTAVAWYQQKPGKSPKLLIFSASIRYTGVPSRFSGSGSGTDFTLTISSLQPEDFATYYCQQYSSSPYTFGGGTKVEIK VH: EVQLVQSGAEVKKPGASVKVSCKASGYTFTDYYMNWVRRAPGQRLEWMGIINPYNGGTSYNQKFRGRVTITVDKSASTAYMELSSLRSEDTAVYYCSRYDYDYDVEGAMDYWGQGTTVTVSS : 793
Hab015VL5VH1a-hFc (scFv, part only; not given: scFv linker and human IgG1 Fc, V domains shown, not shown: another chain or arm of the molecule; a dimerising Fc or GST; small tags and cut ends) VL: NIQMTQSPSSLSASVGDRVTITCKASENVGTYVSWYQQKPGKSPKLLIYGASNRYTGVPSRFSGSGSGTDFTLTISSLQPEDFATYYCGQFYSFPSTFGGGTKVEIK VH: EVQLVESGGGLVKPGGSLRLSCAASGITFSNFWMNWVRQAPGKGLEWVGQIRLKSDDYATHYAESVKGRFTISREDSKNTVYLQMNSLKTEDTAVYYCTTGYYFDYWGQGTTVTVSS : 907

Continue with the next binder.
// returns reported MFI at 20 nM for input Hab008L3H2a-hFc (scFv, part only; not given: VL-VH linker and human IgG1 Fc, V domains shown, not shown: another chain or arm of the molecule; a dimerising Fc or GST; small tags and cut ends) VL: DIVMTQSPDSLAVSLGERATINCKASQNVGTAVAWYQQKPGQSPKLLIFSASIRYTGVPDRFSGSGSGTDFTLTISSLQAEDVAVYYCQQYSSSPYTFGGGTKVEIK VH: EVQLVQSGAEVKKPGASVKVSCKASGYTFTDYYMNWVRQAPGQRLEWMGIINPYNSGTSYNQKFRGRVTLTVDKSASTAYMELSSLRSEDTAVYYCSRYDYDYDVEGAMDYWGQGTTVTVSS
426
